Item-by-item account of Normalized RLU at 100pM (MCF7, Fab-saporin)
# system_name: T1, human CD324 on cells (MCF7, BR22, NTX tumor cells, 293-hCD324) (human, UniProt P12830 155-882)
# T1 sequence: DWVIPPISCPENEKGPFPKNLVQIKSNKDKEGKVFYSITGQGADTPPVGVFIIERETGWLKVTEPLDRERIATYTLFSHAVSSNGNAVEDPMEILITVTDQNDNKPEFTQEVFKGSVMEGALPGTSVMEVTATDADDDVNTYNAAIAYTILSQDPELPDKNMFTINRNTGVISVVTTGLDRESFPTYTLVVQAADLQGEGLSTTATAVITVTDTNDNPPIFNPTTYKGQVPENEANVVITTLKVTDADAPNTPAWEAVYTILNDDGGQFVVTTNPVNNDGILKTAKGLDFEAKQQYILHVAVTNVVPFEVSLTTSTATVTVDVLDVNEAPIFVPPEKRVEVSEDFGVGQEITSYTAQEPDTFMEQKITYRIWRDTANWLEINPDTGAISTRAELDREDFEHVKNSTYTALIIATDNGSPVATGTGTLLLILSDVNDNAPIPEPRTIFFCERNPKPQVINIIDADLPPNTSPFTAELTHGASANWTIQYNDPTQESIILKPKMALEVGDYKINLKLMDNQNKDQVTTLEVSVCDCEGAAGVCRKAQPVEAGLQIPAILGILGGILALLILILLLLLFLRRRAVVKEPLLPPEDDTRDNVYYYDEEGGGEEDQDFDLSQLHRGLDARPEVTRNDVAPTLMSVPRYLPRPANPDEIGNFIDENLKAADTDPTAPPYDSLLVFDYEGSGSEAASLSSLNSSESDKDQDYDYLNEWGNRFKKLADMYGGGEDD
# assay_name: cell-based or functional assay
Write no unit; give the number alone.

| binder | val |
| --- | --- |
| SC10.178 (antibody, V domains shown) VH: QILLVQSGPELKKPGETVKISCKANYTFTDYGMHWVKQAPGKGLKWMGWINPKTGVASYADDFKGRFAFSLETSASTAYLQINNLENEDTSIYFCARFFDYWGQGTTLTVSS VL: DIVLTQSPLSLLVSLGDQASISCRSSQSLVHSNGNTYLHWYLQKPGQSPNLLIFKVSNRFSGVPDRFSGSGSGTDFTLRISRVEAEDLGVYFCSQTTHVWTFGGGTKLEIK | 38.1 |

Requested field: Normalized RLU at 100pM (MCF7, Fab-saporin). Item: SC10.38 (antibody, V domains shown) VH: QVQLQQSGAELMKTGASVKISCKATGYTFSSYWIEWVKQRPGHGLEWIGEILPGSGKTNYNENFKGKATFTADTSSNTAYMQLSSLTSEDSVVYYCARRGAYYGNFDYWGQGTTLTVSS VL: DIQMNQSPSSLSASLGDTITITCHVSQNINVWLTWYQQKPGNIPKLLLYKASNLQTGVPSRFSGSGSGTGFTLTISSLQPEDIATYYCQQGQSYPFTFGSGTK 106

# iterate: SC10.35 (antibody, V domains shown) VH: SDVQLQESGPGLVKPSQSLSLTCTVTDYSITSDYAWNWIRQFPGNNLEWMGNIGYSGDTSYNPSLKSRISITRDTSKNQFFLQLNSVTTEDSATYYCARSSLGPFDYWGQGTALTVSS VL: QIVLTQSPAIMSASPGERVTLTCSASSSVSSSFLYWYQQKSGSSPKLWIYSTSTLASGVPARFSGSGSGTSYSLTISSMEAEDAASYFCHQWSSYPWTFGGGTKLEIK 19.4

Next: SC10.168 (antibody, V domains shown) VH: SDVQLQESGPGLVKPSQSLSVTCTVTDYSLTSGYYWNWIRQFPGNKLEWMAYIHSSGSTHYNPSLKSRISVTRDTSKNQFFLQLNSVTTEDTATYYCARDGAYYSSWFPYWGQGTLVTVSA VL: DIVMTQSHKLMSASVGDRVSITCKASQDVGTAVAWYQQKPGRSPKLLIYWASNRHTGVPDRFTGSGSGTDFTLTISNVQSEDLADYFCQQFGSYPYTFGGGTKLEIKR 34

Also, SC10.163 (antibody, V domains shown) VH: EVQLQQSGPELVKPGDSVKMSCKASGNTVTNYYMDWVKQSHGKSLEWIGYIYANNGGTSYNQKFKGKATLTVDKSSSTAYMEIHSLTSEDSAVYYCAIYYRYEFAYWGQGTLVTVSA VL: DIVMTQAAFSNPVTLGTSASISCRSSKSLLHSNGITYLYWYLQKPGQSPQLLIYQMSNLASGVPDRFSNSGSGTDFTLRISRVEAEDVGVYYCAQNLELPWTFGGGTKLEIK please. 90.3

Follow-up item: SC10.75 (antibody, V domains shown, murine mAb; variable regions only) VH: QVQLKESGPGLVAPSQSLSITCTVTGFSLSRYSVHWIRQPPGKGLEWLGMIWGGGSTDYNSALKSRLSINKDNSKSQVFLKMNSLQTVDTAMYYCARTQFYYGHDGGYAMDYWGQGTSVTVSS VL: DIVMSQSPSSLAVSVGEKVTMSCKSSQSLLYSNNQKNYLAWYQQKPGQSPKLLIYWASSRESGVPERFTGSGSGTDFTLTISSVKAEDLAVYYCQQYYSSPYTFGGGTKLK 98.8
